- Target system: T1, canine OX40L, full length membrane form, expressed on HEK293 cells (canine)
- T1 chain: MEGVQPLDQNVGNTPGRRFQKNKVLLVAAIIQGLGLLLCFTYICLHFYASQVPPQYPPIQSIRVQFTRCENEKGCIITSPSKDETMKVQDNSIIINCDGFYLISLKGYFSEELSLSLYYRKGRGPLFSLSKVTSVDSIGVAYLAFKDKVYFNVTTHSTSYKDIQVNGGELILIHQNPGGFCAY
- Protocol: cell-based or functional assay
Value type: % Signal Inhibition Rep2 (%)
Please state the figure in %; there is no need to write the unit.

// solved cases for % Signal Inhibition Rep2 follow
Binder | % Signal Inhibition Rep2, %
PMX110 (antibody, V domains shown) VH: EVQLVESGGDLVRPGGSLRLSCVASGFTFSSYHMSWVRQAPGKGLQWVAFINSGGSSTTYADVVRGRFTISRDYAKNTLYLQMNSLRAEDTAVYYCASGSILTHFDYWGQGTLVTVSS VL: SFVLTQLPSVSVTLRQTARITCGGDSVGSKSVYWYQQKLGQAPVLIIYRDSNRPTGIPERFSGASSGNTATLTISGALAEDEADYYCQVWDNSNKAMFGGGTHLTVL | 43.1
PMX038 (antibody, V domains shown, also called PMX38) VH: EVQLVESGGDLVKPGGSLRLSCVASGFTFSSYHMSWVRQAPGKGLQWVAYITSGGRTTSYADAVKGRFTISRDNAKNTLYLQMKSLRAEDTAVYYCARDLVLVLGGAEYWGQGTLVTVSS VL: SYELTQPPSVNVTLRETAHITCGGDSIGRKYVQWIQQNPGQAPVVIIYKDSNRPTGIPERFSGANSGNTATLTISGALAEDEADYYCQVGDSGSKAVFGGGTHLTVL | 75

Could you now consider this next binder?
What % Signal Inhibition Rep2 value was documented for this binder, PMX291 (antibody, V domains shown) VH: EVQLVESGGDLLKPGGSLRLSCVASGFPFRNYDMTWVRQAPGKGLQWVAAIHYDGSNTYYTDAVKGRFTISRDNARNTVFLQMNSLRAEDTAVYYCAKKFNNYRPFDYWGQGTLVTVSS VL: DIVMTQTPPSLSVSPRETPSISCKASQSLLRSDGNTYLEWYLQKPGQSPQLLIYLVSNRFTGVSDRFSGSGSGTDFTLRISRVEANDAGVYYCGQGTQLPWTFGAGTKVELK ?
70.3
